The values you see were collected from patent US20260035360A1.

tested on: ATF4; test: ATF4 protein level in PC3 cells by western blot, 24 hr; assay type: cell-based; conditions: Homo sapiens, PC-3, PC3, 24 h, Actin control, read-out: Relative ATF4 protein at 10 μM (fold change, PC3 24 h)

{"columns": ["compound", "experimental.target", "fold induction at 10 µM"],
 "data": [
  ["CN(C)c1c(Cl)cc(-c2cc(C(F)(F)F)nn2C)c(O)c1-c1ccc(Cl)c(C(F)(F)F)c1", "ATF4", 3],
  ["O=c1oc2c(-c3ccc(Cl)c(C(F)(F)F)c3)c(O)ccc2c2cc(C(F)(F)F)nn12", "ATF4", 4.4],
  ["Cn1nc(C(F)(F)F)cc1-c1ccc(N(CCCOCCC(=O)NCCOCCOCCOCCNc2cccc3c2C(=O)N(C2CCC(=O)NC2=O)C3=O)C(=O)c2ccc(Cl)c(C(F)(F)F)c2)cc1O (stereo not drawn)", "ATF4", 7],
  ["Cc1ncsc1-c1ccc(CNC(=O)[C@@H]2C[C@@H](O)CN2C(=O)[C@@H](NCCOCCOCCCCCOc2ccc(-c3cc(C(F)(F)F)nn3C)c(O)c2-c2ccc(Cl)c(C(F)(F)F)c2)C(C)(C)C)cc1", "ATF4", 2.2],
  ["Cc1ncsc1-c1ccc(CNC(=O)[C@@H]2C[C@@H](O)CN2C(=O)[C@@H](NCCOCCOc2ccc(COc3ccc(-c4cc(C(F)(F)F)nn4C)c(O)c3-c3ccc(Cl)c(C(F)(F)F)c3)cc2)C(C)(C)C)cc1", "ATF4", 0.4],
  ["Cn1nc(C(F)(F)F)cc1-c1ccc(CCc2ccc(Cl)cc2)c(-c2ccc(Cl)c(C(F)(F)F)c2)c1O", "ATF4", 12]
]}

---

Entries annotated with measured fold induction at 10 µM
test system: ATF4; assay: ATF4 protein level in PC3 cells by western blot, 24 hr; type: cell-based; conditions: Homo sapiens, PC-3, PC3, 24 h, Actin control, read-out: Relative ATF4 protein at 10 μM (fold change, PC3 24 h)

{"columns": ["compound", "fold induction at 10 µM"],
 "data": [
  ["CC(C)Cc1ccc(C(C)Oc2ccc(-c3cc(C(F)(F)F)cn3C)c(O)c2-c2ccc(Cl)c(C(F)(F)F)c2)cc1 (stereo not shown) [NUCC-0226438]", 3.7],
  ["COCCOCCCN(C(=O)c1ccc(C(F)(F)F)c(Cl)c1)c1ccc(-c2cc(C(F)(F)F)nn2C)c(O)c1 [NUCC-0226268]", 5.4],
  ["C[C@@H](Oc1ccc(-c2cc(C(F)(F)F)nn2C)c(O)c1-c1ccc(Cl)c(C(F)(F)F)c1)c1ccccc1 [NUCC-0226433]", 10.6],
  ["Cn1nc(C(F)(F)F)cc1-c1ccc(Cc2ccc(Cl)cc2)c(-c2ccc(Cl)c(C(F)(F)F)c2)c1O [NUCC-0226566]", 10.5],
  ["Cn1nc(C(F)(F)F)cc1-c1cc(Cl)c(COc2ccc(Cl)cc2)c(-c2ccc(Cl)c(C(F)(F)F)c2)c1O [NUCC-0226605]", 10.3],
  ["Cn1nc(C(F)(F)F)cc1-c1cc(Cl)c(Oc2ccc(Cl)cc2)c(-c2ccc(Cl)c(C(F)(F)F)c2)c1O [NUCC-0227245]", 20.3],
  ["CC(C)Cc1ccc(COc2ccc(-c3cc(C(F)(F)F)nn3C)c(O)c2-c2ccc(Cl)c(C(F)(F)F)c2)cc1 [NUCC-0226305]", 2.9],
  ["CC(C)n1nc(C(F)(F)F)cc1-c1ccc(OCc2ccc(Cl)cc2)c(-c2ccc(Cl)c(C(F)(F)F)c2)c1O [NUCC-0226657]", 7.7],
  ["CC(C)Cc1ccc([C@@H](C)Oc2ccc(-c3cc(C(F)(F)F)nn3C)c(O)c2-c2ccc(Cl)c(C(F)(F)F)c2)cc1 [NUCC-0226437]", 9],
  ["Cc1ncsc1-c1ccc(CNC(=O)[C@@H]2C[C@@H](O)CC2C(=O)[C@@H](NCCOCCOCCOCCCCCOc2ccc(-c3cc(C(F)(F)F)nn3C)c(O)c2-c2ccc(Cl)c(C(F)(F)F)c2)C(C)(C)C)cc1 (stereo partly shown) [NUCC-0226266]", 1.7],
  ["Cn1nc(C(F)(F)F)cc1-c1ccc(OCc2ccc(Cl)cc2)c(-c2ccc(F)cc2)c1O [NUCC-0226503]", 3],
  ["CC(=O)Oc1c(-c2cc(C(F)(F)F)nn2C)ccc(OCc2ccccc2)c1-c1ccc(Cl)c(C(F)(F)F)c1 [NUCC-0226258]", 5.8],
  ["COc1ccc(-c2c(Cl)c(C(F)(F)F)nn2C)c(O)c1-c1ccc(Cl)c(C(F)(F)F)c1 [NUCC-0226501]", 9.3]
]}

---

molecular target: MYC (Homo sapiens); construct: endogenous in cells; host or cells: PC3 cells; assay: MYC protein level in PC3 cells by western blot, 24 hr; assay type: cell-based; settings: PC-3, 24 h, PC3, 24 h, Actin control, read-out: Relative MYC protein at 10 μM (%, PC3 24 h)
Sequence (P01106 whole entry): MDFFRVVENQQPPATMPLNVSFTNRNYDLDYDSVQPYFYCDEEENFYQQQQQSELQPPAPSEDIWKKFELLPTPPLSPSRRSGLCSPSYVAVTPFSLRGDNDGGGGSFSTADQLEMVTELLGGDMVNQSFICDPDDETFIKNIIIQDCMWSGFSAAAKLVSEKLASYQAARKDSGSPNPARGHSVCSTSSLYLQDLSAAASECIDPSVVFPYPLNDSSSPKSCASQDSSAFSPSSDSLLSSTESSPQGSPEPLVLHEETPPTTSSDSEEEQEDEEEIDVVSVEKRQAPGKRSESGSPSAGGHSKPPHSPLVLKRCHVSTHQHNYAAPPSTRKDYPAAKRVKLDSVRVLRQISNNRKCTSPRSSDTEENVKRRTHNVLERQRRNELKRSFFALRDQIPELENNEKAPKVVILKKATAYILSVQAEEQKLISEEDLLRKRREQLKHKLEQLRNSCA
readout: remaining activity at 10 µM (%)

{"columns": ["compound", "experimental.target", "unit.abbreviation", "endpoint.value"],
 "data": [
  ["Cn1nc(C(F)(F)F)cc1-c1ccc(OCc2ccc(OCCOCCOc3cccc4c3C(=O)N(C3CCC(=O)NC3=O)C4=O)cc2)c(-c2ccc(Cl)c(C(F)(F)F)c2)c1O (stereo not drawn)", "MYC (Homo sapiens)", "%", 85.1],
  ["Cn1nc(C(F)(F)F)cc1-c1ccc(N(CCCOCCC(=O)NCCOCCOCCOCCNc2cccc3c2C(=O)N(C2CCC(=O)NC2=O)C3=O)C(=O)c2ccc(Cl)c(C(F)(F)F)c2)cc1O (stereo not drawn)", "MYC (Homo sapiens)", "%", 120],
  ["Cn1nc(C(F)(F)F)cc1-c1ccnc(-c2ccc(Cl)c(C(F)(F)F)c2)c1O", "MYC (Homo sapiens)", "%", 69.8]
]}

---

conditions: female, mouse, in vivo, po, 1 mg/kg
Threshold check on AUMC0-t: at or above 50000 h*h*ng/mL gives yes (1), strictly below gives no (0).

{"columns": ["molecule", "assigned.class"],
 "data": [
  ["Cn1nc(C(F)(F)F)c(Cl)c1-c1ccc(COc2ccc(Cl)cc2)c(-c2ccc(Cl)c(C(F)(F)F)c2)c1O", "yes (1)"],
  ["Cn1nc(C(F)(F)F)c(Cl)c1-c1cc(Cl)c(COc2ccc(Cl)cc2)c(-c2ccc(Cl)c(C(F)(F)F)c2)c1O", "yes (1)"],
  ["Cn1nc(C(F)(F)F)cc1-c1c(F)cc(OCc2ccc(Cl)cc2)c(-c2ccc(Cl)c(C(F)(F)F)c2)c1O", "no (0)"],
  ["Cn1nc(C(F)(F)F)cc1-c1ccc(COc2ccc(Cl)cc2)c(-c2ccc(Cl)c(C(F)(F)F)c2)c1O", "yes (1)"]
]}

---

Entries annotated with measured pIC50
system: PC12 cells; experiment: PC12 cell viability, CellTitreGlo Assay, 72 hrs; format: cell-based; settings: Rattus norvegicus, PC-12
pIC50: −log10 of the molar value.
readout: pIC50

{"columns": ["molecule", "endpoint.value"],
 "data": [
  ["Cn1nc(C(F)(F)F)c(Cl)c1-c1cc(Cl)c(COc2ccc(Cl)cc2)c(-c2ccc(Cl)c(C(F)(F)F)c2)c1O", 4.96],
  ["Cn1nc(C(F)(F)F)cc1-c1cc2c(c(-c3ccc(Cl)c(C(F)(F)F)c3)c1O)CN(Cc1ccc(Cl)cc1)CC2", 5.10],
  ["COc1c(Cl)cc(-c2cc(C(F)(F)F)nn2C)c(O)c1-c1ccc(Cl)c(C(F)(F)F)c1", 5.07],
  ["Cn1nc(C#N)cc1-c1cc(Cl)c(COc2ccc(Cl)cc2)c(-c2ccc(Cl)c(C(F)(F)F)c2)c1O", 5.42]
]}

---

assay: Plasma pharmacokinetics after 1 mg/kg PO in female mice; conditions: mouse, T1/2—range*, Table 6, PO 1 mg/kg, female mice
readout: half-life

{"columns": ["molecule", "readout", "endpoint.value"],
 "data": [
  ["Cn1nc(C(F)(F)F)c(Cl)c1-c1cc(Cl)c(COc2ccc(Cl)cc2)c(-c2ccc(Cl)c(C(F)(F)F)c2)c1O [NUCC-0227037]", "half-life", "8 to 48 h"]
]}

---

Tested on: ATF4
Experiment: ATF4 protein level in PC3 cells by western blot, 24 hr
Assay type: cell-based
Details: Homo sapiens, PC-3, PC3, 24 h, Actin control, read-out: Relative ATF4 protein at 10 μM (fold change, PC3 24 h)
Protocol: Table 2. Biological data of selected compounds. For IC50 determination. PC3 and PC12 cells were treated with increasing concentrations of the indicated compounds for 72 hrs and cell viability assessed using CellTitreGlo Assay (Promega). For MYC and ATF4 protein level determination. […] Quantification analyses were performed by Biorad ChemiDoc Imager and Bio-Rad Image Lab software.
Entries annotated with measured fold induction at 10 µM

{"columns": ["molecule", "fold induction at 10 µM"],
 "data": [
  ["Cc1ncsc1-c1ccc(CNC(=O)[C@@H]2C[C@@H](O)CN2C(=O)[C@@H](NC(=O)C2(F)CC2)C(C)(C)C)c(OCCOCCOc2ccc(COc3ccc(-c4cc(C(F)(F)F)nn4C)c(O)c3-c3ccc(Cl)c(C(F)(F)F)c3)cc2)c1", 1.6],
  ["Cn1nc(C(N)=O)cc1-c1cc(Cl)c(COc2ccc(Cl)cc2)c(-c2ccc(Cl)c(C(F)(F)F)c2)c1O", 3.9],
  ["Cn1nc(C(F)(F)F)cc1-c1ccc(NC(c2ccccc2)c2ccccc2)c(-c2ccc(Cl)c(C(F)(F)F)c2)c1O", 1.4]
]}
